// provenance: PubChem BioAssay

Test: binders of probe aHhip on microarray, primary screen, stem cell growth factor project, biochemical, small-molecule microarray, fluorescence 635/667 (AID 1087);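 further: score merges spot fluorescence at 667nm with spot signal to noise ratio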
Settings: higher = more signal
composite z-score class ranges: low band (below -0.1), middle band (-0.1 to below 0.2), high band (0.2 or more)

Study these solved cases before continuing.
molecule	group
NCCCCCNC(=O)[C@@H]1C[C@@H]2C(=O)N3CCC[C@H]3C(=O)N2[C@@H]1c1cccc(OCCO)c1	high band
CC(CCN1CCCCc2nc(C)c(C)cc21)=NOC(C)CN1CCCc2nc(C)c(C)cc21 (stereo not given)	high band
CS(=O)(=O)CCOC(=O)C1=CC(CCCO)=CC(c2cccs2)N(Cc2cccc(OC(F)(F)F)c2)C=C1C(=O)OCCS(C)(=O)=O (stereo not given)	low band

Q) Which composite z-score band matches "Cc1ccc(S(=O)(=O)N[C@@H]2COC(=O)[C@H](C)COC(=O)CC=C[C@H]2C)cc1" ?
A) middle band

Q) Which composite z-score band matches "[N-]=[N+]=NCc1ccccc1C[C@]1(C(=O)NCc2ccccc2)N=C(c2ccc(OCCCO)cc2)O[C@H]1c1ccccc1N=[N+]=[N-]" ?
A) high band

Q) Which composite z-score band matches "CO[C@H]1COC(=O)[C@@H]2CCCN2C(=O)[C@@H](C)COC(=O)CC=C[C@@H]1C" ?
A) low band

Q) Which composite z-score band matches "CC(=O)OC[C@H]1O[C@H](CCON=C(C)CCC(=O)OC[C@H]2O[C@H](C#Cc3ccccc3)C=C[C@@H]2Oc2ccc(C)cc2)C=C[C@@H]1OC(C)=O" ?
A) low band

* * *

Assay: small-molecule microarray binders of probe aLefty2, primary screen, biochemical, biotinylated probe, 635/667 nm fluorescence (AID 1094);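 further: score merges spot fluorescence near 667 nm with spot signal-to-noise ratio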
Conditions: higher = more signal
test readout: composite z-score
Reply: number alone, nothing else.

substance smiles	composite z-score
COc1ccc(O[C@H]2C=C[C@@H](c3ccccc3)O[C@@H]2COC(=O)CCC(C)=NO[C@@H](C)c2cc(-c3c(C)cc(C)cc3C)no2)cc1	-0.219
C[N+](C)(C)CCCCCCNC(=O)[C@@H]1C[C@@H]2C(=O)N3CCC[C@H]3C(=O)N2[C@@H]1c1cccc(OCCO)c1	-0.0898

Q) composite z-score for "C=CCNC(=O)[C@H]1[C@@H]2C(=O)O[C@@H](c3ccccc3)[C@@H](c3ccccc3)N2[C@@H](c2ccc(O)cc2)[C@]12C(=O)N(C(=O)OCCOC)c1ccc(C#CC3=CCCCC3)cc12" ?
A) 0.862

* * *

Tested on: PRMT1 (protein arginine N-methyltransferase 1)
Test: PRMT1 binders on small-molecule microarrays, primary screen, biochemical, small-molecule microarray, 635 nm fluorescence (AID 1088);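 further: binding of Prmt1 protein to compounds spotted on small-molecule microarray slides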
Settings: small-molecule microarray binding, higher = more signal
test readout: composite z-score
Reply: number alone, nothing else.

>>> df
                                   molecule                               system_name  measured_result
0  O=C1[C@H]2[C@H]3[C@H](O)[C@H](O)CC(=NO[C@@H]4O[C@H](CO)[C@@H](O)[C@H](O)[C@H]4O)[C@H]3CC[C@H]2C(=O)N1C1CCCCC1  PRMT1 (protein arginine N-methyltransferase 1)             1.55
1  CN(C)C(=O)[C@@]1(Cc2ccccc2)N=C(c2ccc(OCCCO)cc2)O[C@H]1c1ccccc1CN=[N+]=[N-]  PRMT1 (protein arginine N-methyltransferase 1)             1.56

Q) composite z-score for "CC=CC1=C(CO)[C@H](O)[C@H]2O[C@H]2[C@H]1O" ?
A) 1.23

Q) composite z-score for "C=CC[C@@H]1C=C[C@H](ON=C[C@@H](OC)[C@H](C)C=CCC(=O)OC)[C@@H](CO)O1" ?
A) 0.325

Q) composite z-score for O=C1CCCC=C1C(O)CCOCc1ccccc1 (centres undefined) ?
A) -0.195
